The reader will find IC50 measurements below, all made with ATX (human His-tagged) (Homo sapiens (Human), UniProt Q13822).
MEASUREMENT_LABEL: IC50 (nM)

>>> df
                                   compound  measurement_label  unit_symbol  quantitative_readout
0  NS(=O)(=O)c1ccc(C(=O)N2C[C@H]3CN(C(=O)OCc4ccc(OC(F)(F)F)cc4)C[C@@H]3C2)cc1F               IC50           nM                     1
1  NS(=O)(=O)c1ccc(C(=O)N2C[C@H]3CN(C(=O)OCc4cc(Cl)cc(Cl)c4)C[C@H]3C2)cc1               IC50           nM                     4
2  NS(=O)(=O)c1ccc(C(=O)N2C[C@H]3CCN(C(=O)OCc4cc(Cl)cc(Cl)c4)C[C@@H]3C2)cc1 (single isomer, unassigned)               IC50           nM                     5
3  CC(C)(C)C(=O)Nc1cc(C#N)ccc1COC(=O)N1C[C@@H]2CN(C(=O)c3ccc(S(N)(=O)=O)cc3F)C[C@H]2C1               IC50           nM                     2
4  CC(C)(C)C(=O)Nc1cc(C#N)ccc1COC(=O)N1C[C@@H]2CN(C(=O)c3ccc(S(N)(=O)=O)nc3)C[C@H]2C1               IC50           nM                     4
5  Cn1c(C(=O)N2C[C@H]3CN(C(=O)c4ccc(S(N)(=O)=O)cc4)C[C@H]3C2)cc2cc(OC(F)(F)F)ccc21               IC50           nM                   166

(A) NS(=O)(=O)c1ccc(C(=O)N2C[C@H]3CN(C(=O)CCc4ccc(OC(F)(F)F)cc4)C[C@H]3C2)cc1
(B) NS(=O)(=O)c1ccc(C(=O)N2C[C@H]3CN(C(=O)CCc4ccc(OC(F)(F)F)cc4F)C[C@@H]3C2)cc1
Query: Among A and B , whose measured IC50 is the smaller figure? Could you answer with the label of the item you picked?
Result: B
(B: 1 nM, A: 1.5 nM)

(P) CC(C)(C)C(=O)Nc1cc(C#N)ccc1COC(=O)N1C[C@@H]2CN(C(=O)c3ccc(S(N)(=O)=O)cn3)C[C@H]2C1
(Q) CS(=O)(=O)c1cc(Cl)cc(COC(=O)N2C[C@@H]3CN(C(=O)c4ccc(S(N)(=O)=O)cc4)C[C@H]3C2)c1
Query: Parameter check: reported IC50 is higher for which label, P or Q ? Could you answer with the label of the item you picked?
Result: Q
(Q: 14.5 nM, P: 10 nM)

(a) NS(=O)(=O)c1ccc(C(=O)N2C[C@H]3CCN(C(=O)/C=C/c4ccc(OC(F)(F)F)cc4)CC[C@H]3C2)cc1
(b) NS(=O)(=O)c1ccc(C(=O)N2C[C@H]3CN(C(=O)OCc4cc(Cl)cc(Cl)c4)C[C@H]3C2)s1
Query: Parameter check: reported IC50 is higher for which label, a or b ? Could you answer with the label of the item you picked?
Result: b
